Tested on: DND-41;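 also: ALL cell lines in 384-well plates, five doses spanning 10,000-fold, each plate scaled between vehicle and 100 µmol/L benzalkonium chloride controls, sDSS an adapted area-under-curve metric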
Test name: selective drug sensitivity score (sDSS, relative to normal bone marrow) (sDSS (score)); higher = more potent and effective on the cell line relative to normal bone marrow cells
Experimental context: 72 h
Binary classification by selective drug sensitivity score, with 2 as an inclusive lower bound for label 1; all other cases are label 0.

* O=C(/C=C\n1cnc(-c2cc(C(F)(F)F)cc(C(F)(F)F)c2)n1)NNc1ccccn1 [Verdinexor] (top concentration 1000 nM) | label 1
* CCOC(=O)CCNc1cc(N2CCc3ccccc3CC2)nc(-c2ccccn2)n1 [GSK-J4] (top concentration 100000 nM) | label 0
* Cc1sc2c(c1C)C(c1ccc(Cl)cc1)=N[C@@H](CC(=O)OC(C)(C)C)c1nnc(C)n1-2 [JQ1] (top concentration 10000 nM) | label 1
* CC#CC(=O)N1CC[C@@H](n2c(=O)n(-c3ccc(Oc4ccccc4)cc3)c3c(N)ncnc32)C1 [Tirabrutinib] (top concentration 1000 nM) | label 1
* NC(=O)NO [Hydroxyurea] (top concentration 1000000 nM) | label 0
* O=C(NOC[C@H](O)CO)c1ccc(F)c(F)c1Nc1ccc(I)cc1F (top concentration 1000 nM) | label 1
* COc1ccc(-c2ccc3ncc4c(c3c2)n(-c2ccc(N3CCNCC3)c(C(F)(F)F)c2)c(=O)n4C)cn1 [NVP-BGT226] (top concentration 1000 nM) | label 1
